Molecular target: Fibroblast growth factor receptor 2 (Homo sapiens) (UniProt P21802)
Sequence (P21802 22-821 limits assumed): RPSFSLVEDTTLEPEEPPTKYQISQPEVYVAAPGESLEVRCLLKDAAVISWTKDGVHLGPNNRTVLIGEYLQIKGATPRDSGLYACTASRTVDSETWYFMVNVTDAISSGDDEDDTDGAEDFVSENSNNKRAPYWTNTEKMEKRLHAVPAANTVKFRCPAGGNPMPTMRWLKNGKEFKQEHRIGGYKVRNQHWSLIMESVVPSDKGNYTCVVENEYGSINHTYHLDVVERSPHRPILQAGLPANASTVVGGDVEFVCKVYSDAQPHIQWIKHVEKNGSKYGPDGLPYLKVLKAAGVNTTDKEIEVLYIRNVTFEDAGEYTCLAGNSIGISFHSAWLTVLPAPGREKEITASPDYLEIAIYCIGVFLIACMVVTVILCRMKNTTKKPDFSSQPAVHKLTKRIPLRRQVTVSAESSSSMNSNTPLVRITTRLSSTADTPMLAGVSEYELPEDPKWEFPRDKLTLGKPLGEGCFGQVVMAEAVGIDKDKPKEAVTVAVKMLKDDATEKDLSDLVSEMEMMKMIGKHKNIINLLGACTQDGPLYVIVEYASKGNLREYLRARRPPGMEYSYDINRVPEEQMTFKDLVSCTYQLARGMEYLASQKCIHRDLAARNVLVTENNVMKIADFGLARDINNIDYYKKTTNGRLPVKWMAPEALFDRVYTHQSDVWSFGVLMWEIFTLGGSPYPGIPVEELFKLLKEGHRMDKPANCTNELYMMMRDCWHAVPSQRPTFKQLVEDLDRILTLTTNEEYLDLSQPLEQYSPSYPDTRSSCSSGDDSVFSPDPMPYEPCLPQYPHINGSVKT
Settings: Compound concentration 20.0 uM
Description: Thermal Shift Assay. Domain: start/stop: T457-E768
What ΔTm was measured for each of the following?
Give bare numbers, in °C.

Answered examples (2):
CCNC(=O)NCCSC[C@H]1O[C@@H](n2cnc3c(N)ncnc32)[C@H](O)[C@@H]1O	0.95
CNC(=O)c1cnc(N2CCC[C@H](N)C2)nc1Nc1cc(C(C)C)nc(C(C)C)c1	-3.52

Could you tell me ΔTm for each of these compounds? They are listed below.
1. Cc1c(Nc2ccc(S(=O)(=O)N3CCN(C)CC3)cc2F)nc2ccc(-c3cnn(C4CC4)c3)cn2c1=O
2. CC(C)Oc1ccc2c(=O)[nH]c3sccc3c2c1
3. N=C(N)SCc1ccc(CN2C(=O)C(=O)c3cc(C(F)(F)F)ccc32)cc1

[-0.17, 0.02, 0.77]

Where do the numbers come from? From ChEMBL document CHEMBL5724796.
